Where do these numbers come from? They come from patent EP0639971B1.

System: zidovudine-resistant virus with Y181 to C, together with M184 to V
Test: Antiviral sensitivity (IC50) of zidovudine-resistant HIV strain with Y181 to C and M184 to V mutations introduced
Assay type: cell-based
Details: Human immunodeficiency virus 1
observable: IC50 (nM)
Just the number in nM, nothing appended.

## Input Reported IC50 for Cc1cn([C@H]2C[C@H](N=[N+]=[N-])[C@@H](CO)O2)c(=O)[nH]c1=O [zidovudine, 3'-azido-3'-deoxythymidine] : what is it?
## Output 40

---

System: HIV-1 population containing four mutations in the HIV-RT which confer zidovudine resistance
Test: Passage of zidovudine-resistant HIV-1 in cell culture with increasing concentrations of Chloro-TIBO; antiviral sensitivity (IC50)
Type: cell-based
Conditions: Human immunodeficiency virus 1, after five passages with Chloro-TIBO
observable: IC50

## Input Sample Cc1cn([C@H]2C[C@H](N=[N+]=[N-])[C@@H](CO)O2)c(=O)[nH]c1=O [zidovudine, 3'-azido-3'-deoxythymidine] — what was its IC50?
## Output < 100 nM
